Biological target: T1, FcRn-p3 fusion protein (human, UniProt P55899 24-297; P61769 21-119)
T1 construct: baculovirus expressed; coated on ELISA wells; not shown: amino terminal part of bacteriophage p3 protein and CVDE protein
T1 sequence (P55899 24-297, chain 1 of 2): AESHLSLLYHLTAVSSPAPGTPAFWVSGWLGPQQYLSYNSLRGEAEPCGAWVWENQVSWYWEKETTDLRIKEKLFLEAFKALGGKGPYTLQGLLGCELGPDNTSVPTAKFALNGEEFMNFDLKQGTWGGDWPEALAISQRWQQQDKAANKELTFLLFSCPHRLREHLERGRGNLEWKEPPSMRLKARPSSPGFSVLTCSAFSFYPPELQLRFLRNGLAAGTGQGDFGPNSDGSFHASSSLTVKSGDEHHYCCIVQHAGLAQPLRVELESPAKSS
T1 sequence (P61769 21-119, chain 2 of 2): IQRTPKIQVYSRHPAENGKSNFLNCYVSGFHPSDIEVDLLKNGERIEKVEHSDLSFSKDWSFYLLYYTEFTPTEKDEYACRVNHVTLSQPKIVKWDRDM
Experiment: phage ELISA pH6
The entries below come with measured Ratio/Fc-H values attached.
Answer in fold, number only, no unit symbol.

Worked examples, 4 binders total:
Binder	Test Result
T5A_74D (other, EU numbering) CPRCPAPELLGGPSVFLFPPKPKDTLMISRTPEVTCVVVDVSHEDPEVKFNWYVDGVEVHNAKTKPREEQYNSTYRVVSVLTVLHQDWLDGKEYKCKVSNKALPVPIEKTISKAKGQPREPQVYTLPPSRDELTKDQVSLTCLVKGFYPSDIVVEWESNGQPENNYKTTPPVLDSDGSFFLYSKLTVDKSRWQQGNVFSCSVMHEALHYHYTQKSLSLSPGK	26
C6A_78B (other, EU numbering) CPLCPAPELLGGPSVFLFPPKPKDTLMISRNPEVTCVVVDVSHEDPEVKFNWYVDGVEVHNAKTKPREEQYNSTYRVVSVLTVLHQDWLNGKEYKCKVSNKALPAPIEKTISKAKGQPREPQVYTLPPSRDELTKNQVSLTCLVKGFYPSDIVVEWESNGQPENNYKTTPPVLDSDGSFFLYSKLTVDKSRWQQGNVFSCSVMHEALHYHYTQKSLSLSPGK	14.4
T5A_74B (other, EU numbering) CPPCSAPELLGGPSVFLFPPKPKDTLMISRTPEVTCVVVDVSHEDPEVKFNWYVDGVEVHNAKTKPREEQYNSTYRVVSVLTVLHQDWLDGKEYKCKVSNKALPVPIEKTISKAKGQPREPQVYTLPPSRDELTKDQVSLTCLVKGFYPSDIVVEWESNGQPENNYKTTPPVLDSDGSFFLYSKLTVDKSRWQQGNVFSCSVMHEALHYHYTQKSLSLSPGK	5.9
C6A_60D (other, EU numbering) CPRCSAPELLGGPSVFLFPPKPKDTLMISRTPEVTCVVVDVSHEDPEVKFNWYVDGVEVHNAKTKPREEQYNSTYRVVSVLTVLHQDWLDGKEYKCKVSNKALPAPIEKTISKAKGQPREPQVYTLPPSRDELTKNQVSLTCLVKGFYPSDIAVEWESNGQPENNYKTTPPVLDSDGSFFLYSKLTVDKSRWQQGNVFSCSVLHEALHYHYTQKSLSLSPGK	7.4

(Q) Please supply the value of reported Ratio/Fc-H for the item T5A_57 (other, EU numbering) CPPCPAPELLGGPSVLLFPPKPKDTLMISRTPEVTCVVVDVSHEDPEVKFNWYVDGVEVHNAKTKPREEQYNSTYRVVSVLTVLHQDWLDGKEYKCKVSNKALPVPIEKTISKAKGQPREPQVYTLPPSRDELTKNQVSLTCLVKGFYPSDIAVEWESNGQPENNYRTTPPVLDSDGSFFLYSKLTVDKSRWQQGNVFSCSVMHEALHYHYTQKSLSLSPGK
(A) 4.9

Where do the numbers come from? From patent USRE46585.
